I'd appreciate it if you could supply Ratio values for the items below.
Test: Ratio of cytotoxic IC50 to antihaptotactic IC50 in PC-3M cells
Type: functional, Homo sapiens
I only need the number, thanks.

Given the entry CC[C@H]1OC(=O)[C@H](Cc2ccccc2)N(C)C(=O)[C@@H](CC)OC(=O)[C@H](Cc2ccccc2)N(C)C(=O)[C@@H](CC)OC(=O)[C@H](Cc2ccccc2)N(C)C1=O [BEAUVERICIN G3] , report its measured Ratio.
0.9

Given the entry CC(C)[C@@H]1OC(=O)[C@@H](Cc2ccccc2)N(C)C(=O)[C@H](C(C)C)OC(=O)[C@@H](Cc2ccccc2)N(C)C(=O)[C@H](C(C)C)OC(=O)[C@@H](Cc2ccccc2)N(C)C1=O [BEAUVERICIN] , report its measured Ratio.
2.3

Given the entry CC(C)[C@H]1OC(=O)[C@H](Cc2cccc(F)c2)N(C)C(=O)[C@@H](C(C)C)OC(=O)[C@H](Cc2ccccc2)N(C)C(=O)[C@@H](C(C)C)OC(=O)[C@H](Cc2ccccc2)N(C)C1=O [BEAUVERICIN H1] , report its measured Ratio.
2.3

Given the entry CC(C)[C@H]1OC(=O)[C@H](Cc2cccc(F)c2)N(C)C(=O)[C@@H](C(C)C)OC(=O)[C@H](Cc2cccc(F)c2)N(C)C(=O)[C@@H](C(C)C)OC(=O)[C@H](Cc2cccc(F)c2)N(C)C1=O [BEAUVERICIN H3] , report its measured Ratio.
1.4

Given the entry CC(C)[C@H]1OC(=O)[C@H](Cc2cccc(F)c2)N(C)C(=O)[C@@H](C(C)C)OC(=O)[C@H](Cc2cccc(F)c2)N(C)C(=O)[C@@H](C(C)C)OC(=O)[C@H](Cc2ccccc2)N(C)C1=O [BEAUVERICIN H2] , report its measured Ratio.
1.9

Given the entry CC[C@H]1OC(=O)[C@H](Cc2ccccc2)N(C)C(=O)[C@@H](CC)OC(=O)[C@H](Cc2ccccc2)N(C)C(=O)[C@@H](C(C)C)OC(=O)[C@H](Cc2ccccc2)N(C)C1=O [BEAUVERICIN G2] , report its measured Ratio.
1.4

Given the entry CC[C@H]1OC(=O)[C@H](Cc2ccccc2)N(C)C(=O)[C@@H](C(C)C)OC(=O)[C@H](Cc2ccccc2)N(C)C(=O)[C@@H](C(C)C)OC(=O)[C@H](Cc2ccccc2)N(C)C1=O [BEAUVERICIN G1] , report its measured Ratio.
1.3
